# subject-of-test: SARS-COV2-S1 RBD (mouse IgG2Fc tag) (SARS-CoV-2, UniProt P0DTC2 319-537)
measured-property: IC50

1) variant 6-44 (Fc fusion) VHH: EVQLVESGGGLVQPGGSLRLSCAASGGTFGVYHMGWFRQAPGKEREFIGRITWTDGSTYYADSVKGRFTISADNSKNTAYLQMNSLKPEDTAVYYCFGLLEVYDMTFDYWGQGTLVTVSS: 0.97 nM

# batch: return IC50 for each of the 3 binders below
1. variant 6-57 (Fc fusion) VHH: EVQLVESGGGLVQPGGSLRLSCAASGLTFDDHSMGWFRQAPGKEREFVAAVPLSGNTYYADSVKGRFTISADNSKNTAYLQMNSLKPEDTAVYYCASFSGGPADFDYWGQGTLVTVSS
2. variant 6-39 (Fc fusion) VHH: EVQLVESGGGLVQPGGSLRLSCAASGFTFSPSWMGWFRQAPGKEREFVAAISWSGGSTAYADSVKGRFTISADNSKNTAYLQMNSLKPEDTAVYYCHGLGEGDPYGDYEGYFDLWGQGTLVTVSS
3. variant 6-40 (Fc fusion) VHH: EVQLVESGGGLVQPGGSLRLSCAASGFTFSDYWMGWFRQAPGKERELVARVWWNGGSAYYADSVKGRFTISADNSKNTAYLQMNSLKPEDTAVYYCAREVLRQQVVLDYWGQGTLVTVSS

A:
3.13 nM
1.53 nM
1.36 nM

Reference source for all entries: patent US20210355194A1
